This listing pairs compounds with measured MIC.
Tested on: Staphylococcus epidermidis
MEASUREMENT_DESCRIPTION: Antibacterial activity against methicillin-sensitive Staphylococcus epidermidis isolate 12-3
Type: functional
ENDPOINT_LABEL: MIC

[[record]]
compound = "CCO/N=C1\\CN(c2c(F)cc3c(=O)c(C(=O)O)cn(C4CC4)c3c2F)CCC1NC (centres undefined)"
test_value = "0.5 µg/mL"

[[record]]
compound = "CO/N=C1\\CN(c2nc3c(cc2F)c(=O)c(C(=O)O)cn3C2CC2)CC1CN (centres undefined)"
test_value = "0.06 µg/mL"

[[record]]
compound = "CO/N=C1\\CN(c2c(F)cc3c(=O)c(C(=O)O)cn4c3c2OC[C@@H]4C)CCC1N (some centres undefined)"
test_value = "0.5 µg/mL"

[[record]]
compound = "CNC1CCN(c2nc3c(cc2F)c(=O)c(C(=O)O)cn3-c2ccc(F)cc2F)C/C1=N\\OC (centres undefined)"
test_value = "0.125 µg/mL"

[[record]]
compound = "CNC1CCN(c2c(F)cc3c(=O)c(C(=O)O)cn(C4CC4)c3c2OC)C/C1=N\\OC (centres undefined)"
test_value = "0.25 µg/mL"

[[record]]
compound = "CNC1CCN(c2c(F)cc3c(=O)c(C(=O)O)cn4c3c2OC[C@@H]4C)C/C1=N\\OC (some centres undefined)"
test_value = "0.5 µg/mL"

[[record]]
compound = "CNC1CCN(c2c(F)cc3c(=O)c(C(=O)O)cn(C4CC4)c3c2F)C/C1=N\\OC (centres undefined)"
test_value = "0.25 µg/mL"

[[record]]
compound = "CNC1CCN(c2nc3c(cc2F)c(=O)c(C(=O)O)cn3C2CC2)C/C1=N\\OC (centres undefined)"
test_value = "0.5 µg/mL"

[[record]]
compound = "C[C@H]1COc2c(N3CCN(C)CC3)c(F)cc3c(=O)c(C(=O)O)cn1c23.C[C@H]1COc2c(N3CCN(C)CC3)c(F)cc3c(=O)c(C(=O)O)cn1c23.O"
test_value = "0.25 µg/mL"


---

System: Escherichia coli
MEASUREMENT_DESCRIPTION: Antibacterial activity against Escherichia coli ATCC 25922
Assay type: functional
This listing pairs compounds with measured MIC.
ENDPOINT_LABEL: MIC

[[record]]
compound = "CNC1CCN(c2ccc3c(=O)c(C(=O)O)cn(C4CC4)c3n2)C/C1=N\\OC (centres undefined)"
endpoint_label = "MIC"
test_value = "0.5 µg/mL"

[[record]]
compound = "CNC1CCN(c2c(F)cc3c(=O)c(C(=O)O)cn(C4CC4)c3c2OC)C/C1=N\\OC (centres undefined)"
endpoint_label = "MIC"
test_value = "0.125 µg/mL"

[[record]]
compound = "CCO/N=C1\\CN(c2c(F)cc3c(=O)c(C(=O)O)cn(C4CC4)c3c2OC)CCC1NC (centres undefined)"
endpoint_label = "MIC"
test_value = "16 µg/mL"

[[record]]
compound = "CCO/N=C1\\CN(c2nc3c(cc2F)c(=O)c(C(=O)O)cn3C2CC2)CCC1NC (centres undefined)"
endpoint_label = "MIC"
test_value = "4 µg/mL"

[[record]]
compound = "CNC1CCN(c2nc3c(cc2F)c(=O)c(C(=O)O)cn3C2CC2)C/C1=N\\OC (centres undefined)"
endpoint_label = "MIC"
test_value = "0.125 µg/mL"

[[record]]
compound = "CNC1CCN(c2nc3c(cc2F)c(=O)c(C(=O)O)cn3-c2ccc(F)cc2F)C/C1=N\\OC (centres undefined)"
endpoint_label = "MIC"
test_value = "0.125 µg/mL"

[[record]]
compound = "O=C1NC2CCN(c3nc4c(cc3F)c(=O)c(C(=O)O)cn4C3CC3)CC2O1 (centres undefined)"
endpoint_label = "MIC"
test_value = "1 µg/mL"

[[record]]
compound = "CNC1CCN(c2c(F)cc3c(=O)c(C(=O)O)cn(C4CC4)c3c2F)C/C1=N\\OC (centres undefined)"
endpoint_label = "MIC"
test_value = "0.03 µg/mL"

[[record]]
compound = "CO/N=C1\\CN(c2c(F)cc3c(=O)c(C(=O)O)cn4c3c2OC[C@@H]4C)CCC1N (some centres undefined)"
endpoint_label = "MIC"
test_value = "8 µg/mL"


Values from ChEMBL document CHEMBL2331542
